B1: EHEE_rd2_0191 (parent)
chain: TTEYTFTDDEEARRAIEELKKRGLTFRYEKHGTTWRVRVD

Variants of: B1
Test: folding stability dG (cDNA display proteolysis); higher = more stable
Reported Conditions: PBS, room temperature
Value Type: folding stability dG (kcal/mol)
Reply with just the number (in kcal/mol).

Guide cases for folding stability dG, answers given:
| Variant Label | folding stability dG / kcal/mol |
| --- | --- |
| R38K | 2.06 |
| T1R | 1.87 |
| T5W | 2.68 |
| T5R | 1.64 |
| Y28A | 2.4 |
| A15R | 1.08 |
| K30V | 1.82 |
| R38S | 2.49 |
| D9T | 1.3 |
| R27W | 2.77 |

Ask: I would be grateful if you could share the reported folding stability dG for "Y4I" .
Result: 1.44

Ask: Record: "F26P"
Result: 1.41

Ask: Same again, this time with "D40C"
Result: 3.04
